system: HCT-15 colon; assay: NCI-60 one-dose screen, 48 h; settings: 10 µM unless noted
About 83,000 compounds went through this panel and 20% of them were active in at least one assay; those are over-represented in the sample as a whole. Activity calls are given as the source filed them. The calls were made as follows: active = growth percent below 10; inactive = the rest.
Form entry, call: pick from active, inactive

[Q] Dear colleague, could you share the recorded outcome for Cc1cccc(N2CCN(CC(O)COc3ccc(Cl)cc3)CC2)c1 (configuration not stated) when you have a moment?
[A] inactive

[Q] For `COCCn1cc(-c2nc(-c3cc4cccnc4n3CCOC)cs2)c2cc(OC)ccc21` , what call appears in the results of this test?
[A] inactive

[Q] What outcome does the record of this test show for Nc1c(C(=O)Nc2ccccc2Cl)sc2nc3c(cc12)C(O)CCC3 (configuration not stated) ?
[A] inactive

[Q] Per the records of this test, what outcome belongs to Cc1ccc(C(C(N)=O)C(C(N)=O)c2ccccc2)cc1 (configuration not stated) ?
[A] inactive

[Q] Any idea what this test logged for `O=C(NCCCN1CCOCC1)c1cccc(N2C(=O)/C(=C/c3ccc(F)cc3)SC2=S)c1` ?
[A] inactive

[Q] Recorded test call requested for `O=C(Nn1c2c(sc1=Nc1ccccc1)C(=O)c1ccccc1C2=O)c1cc2ccc1CCc1ccc(cc1)CC2`
[A] inactive

[Q] So what was the verdict on `CC(C)OC(=O)c1ccc2[nH]c(O)c(C(=Nc3ccc(N(C)C(=O)CN4CCN(C)CC4)cc3)c3ccccc3)c2c1` in this test?
[A] active

[Q] Could you please tell me the result logged for `COc1ccc2[nH]cc(C(c3cc(F)cc(F)c3)c3c[nH]c4ccc(OC)cc34)c2c1` in this assay?
[A] inactive

[Q] Check the results log: what was the call for `N#Cc1c(-c2ccc(Cl)cc2)nc(NN=Cc2cccc(O)c2)nc1N1CCOCC1` ?
[A] inactive

[Q] Kindly provide the recorded test outcome for the following molecule: `CCOP(=O)(OCC)c1nc(-c2ccccc2)oc1NCc1cccnc1`
[A] inactive

[Q] Each molecule tested received a call. Report the one for CC(C)NC1CCC(Nc2ccnc3cc(Cl)ccc23)CC1 (configuration not stated) .
[A] inactive

[Q] How did this test come out for `CCOC(=O)c1c2c(n3ccc(C)cc13)C(=O)c1ccccc1C2=O` ?
[A] inactive

[Q] Call for entry `Cc1ccc(NC(=S)NNC(=S)NNc2ccccc2)cc1C` :
[A] inactive

[Q] What did this assay record as the result for `C=C(C)[C@@H]1CC[C@]2(C(=O)NCCNCCN)CC[C@]3(C)[C@H](CC[C@@H]4[C@@]5(C)C/C(=C/c6ccncc6)C(=O)C(C)(C)[C@@H]5CC[C@]43C)[C@@H]12` ?
[A] inactive

[Q] I would be grateful if you could indicate the recorded call for `O=[N+]([O-])c1ccc(S(=O)(=O)N2CCN(C3=NS(=O)(=O)c4ccccc4N3c3ccccc3)CC2)cc1` .
[A] inactive

[Q] What outcome does the record of this test show for `O=C1Nc2ccccc2[C@]12CC(c1ccccc1)=NN2` ?
[A] inactive

[Q] Recorded call for `CCOC(=O)C#Cc1c(C(=O)OCC)nnn1[C@@H]1O[C@H](CO)[C@H]2OC3(CCCCC3)O[C@H]21` ?
[A] active

[Q] Could you kindly confirm the outcome this assay logged for `Cn1cc(-c2csc(-c3c[nH]c4ccc(Br)cc34)n2)c2cnccc21` ?
[A] active

[Q] Check the results log: what was the call for `Cc1cccc2c1NC(=O)C2(c1ccc(O)cc1)c1ccc(O)cc1` ?
[A] inactive

[Q] // outcome(item) with item = `CCOC(=O)Cn1c(O)c(N=Nc2ccc(S(N)(=O)=O)cc2)c2cc(Br)ccc21`
[A] inactive

[Q] Status in this test for `C#COc1cccc(Nc2ncnc3ncc(NC(=O)CCl)cc23)c1` ?
[A] active

[Q] Kindly provide the recorded test outcome for the following molecule: `CN1CCN(c2ccc(NC(=O)c3cncnc3Nc3ccc(OCc4ccccn4)c(Cl)c3)cc2)CC1`
[A] active

Provenance of the data: PubChem BioAssay (NCI)
